Measurement Target: KRas wild type (Homo sapiens (Human), UniProt P01116)
Sequence (P01116-2 other isoform, or with tags, fused parts or gaps): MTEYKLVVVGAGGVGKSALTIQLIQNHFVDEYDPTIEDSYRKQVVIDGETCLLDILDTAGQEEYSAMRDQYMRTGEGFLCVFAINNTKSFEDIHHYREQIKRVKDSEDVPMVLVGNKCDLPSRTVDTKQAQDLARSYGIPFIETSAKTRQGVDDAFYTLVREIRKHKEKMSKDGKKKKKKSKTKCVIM
Test Description: Ras GTP binding domain inhibition assay (labeled GTP)
Details: 20 μM compound; KRas wild type; read-out: % Inhibition at 20 μM of K-Ras mutant and wild-type protein, KRas wild type
Protocol: Buffer-I: • 50 mM Tris, pH 7.5 • 150 mM NaCl (optional) • 1 mM MgCl2 • 1 mM DTT. • KRas G12D mutant protein was expressed as a His-tagged protein. […] Then 22 μl of Cy3-GTP or Cy5-GTP was added to each well. The labeled GTP was incubated for 45 min. at room temperature. • Following GTP incubation, wells were washed 3× in Buffer-I, and 200 μl of Buffer-I were added to each well. • Following washes, the amount of bound labeled-GTP was measured with an Eppendorf AF2200 plate reader. […]
Measured Metric: inhibition at 20 µM

Record excerpt, results attached:
COc1ccc(COC[C@H]2O[C@@H](c3csc4c(=O)[nH]c(-c5ccccn5)nc34)[C@H](O)[C@@H]2O)cc1 [drawing 3533] : 1 to 25%
Nc1cccc(-c2csc3c(O)nc(-c4ccccn4)nc23)n1 [drawing 3514] : 51 to 75%
Cc1sc2c(O)nc(-c3nccn3C)nc2c1-c1cccc(C(F)(F)F)c1 [drawing 3599] : 1 to 25%
COCCNc1nc(-c2cn(C)cn2)nc2sc(C)c(-c3ccccc3)c12 [drawing 3585] : 51 to 75%

List inhibition at 20 µM for every entry below, keeping the order given.
1. COc1nc(-c2ccccn2)nc(Oc2cccc(C(F)(F)F)c2)c1O [drawing 3565]
2. COc1cnc(-c2nccn2C)nc1O [drawing 3513]

1 to 25%
51 to 75%

---

Can you tell me inhibition at 20 µM for the items I'm about to list?
Measurement Target: KRas G12D mutant protein (Homo sapiens (Human), UniProt P01116, G12D)
Sequence (P01116-2 other isoform, or with tags, fused parts or gaps G12D): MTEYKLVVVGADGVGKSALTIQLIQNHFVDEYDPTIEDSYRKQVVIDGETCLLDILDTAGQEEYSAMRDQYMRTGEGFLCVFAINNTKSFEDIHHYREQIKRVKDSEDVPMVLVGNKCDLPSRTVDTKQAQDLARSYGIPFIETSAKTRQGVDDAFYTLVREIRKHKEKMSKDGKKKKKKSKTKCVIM
Test Description: Ras GTP binding domain inhibition assay (labeled GTP)
Details: at 20 μM; read-out: KRas G12D % Inh.

Record excerpt, results attached:
Oc1nc(-c2ccccn2)nc2c(-c3cc(CN4CCCC4)ccc3F)csc12 [drawing 3821] : 76 to 100%
O=C(COCc1cccnc1)Nc1nc(-c2ccccn2)nc2sccc12 [drawing 3701] : 51 to 75%
Oc1nc(-c2ncccn2)nc2c(-c3cccc(C(F)(F)F)c3)csc12 [drawing 3926] : 25 to 50%
Cn1ccnc1-c1nc(O)c2scc(-c3ccc(F)cc3F)c2n1 [drawing 3934] : 25 to 50%

Let us move to another entry and its inhibition at 20 µM.
Tell me the measured inhibition at 20 µM of Oc1nc(-c2ccccn2)nc2c(-c3ccc4c(c3)OCO4)csc12 [drawing 3751] , please.
51 to 75%

---

System: IL6 production in RAW 264.7 macrophage cell line
Test Description: Mouse IL6 quantification assay (LPS-stimulated macrophages, ELISA)
Format: cell-based
Details: RAW264.7, RAW 264.7 murine leukemia virus transformed macrophage cell lines, LPS stimulation, read-out: IL-6 % Inhibition at 30 μM
Measured Metric: inhibition at 30 µM (%)
Answers are plain numbers, in %.

CC(C)NC(=O)Nc1cccc(C(=O)Nc2nnc(-c3ccccn3)[nH]2)c1 [drawing 1926] : 0

Let us move to another entry and its inhibition at 30 µM.
Tell me the measured inhibition at 30 µM of Oc1nc(-c2ccccn2)nc2c(-c3cc(Cl)cc(Cl)c3)csc12 [drawing 2241] , please.
0

Data origin: patent US10940139B2
